Catalogue of compounds with associated IC50
# EXPERIMENTAL_SYSTEM: Recombinant human PI3Kγ (full length human PI3K p110γ) (Homo sapiens)
# Construct: full length human PI3K p110γ fused with a His6-tag at the C-terminus; His6 (C); purchased ALEXIS BIOCHEMICALS #201-055-C010; host or cells: S. frugiperda 9 insect cells
# TEST_PROTOCOL: Kinase assay of PI3Kγ (solid-phase lipid kinase assay)
# Assay type: biochemical
# SETTINGS: in vitro PI3K-γ inhibitory activity, class symbols; read-out: in vitro PI3K-gamma

{"columns": ["COMPOUND", "EXPERIMENTAL_SYSTEM", "IC50"],
 "data": [
  ["CS(=O)(=O)Nc1cncc(C(=O)NC2=Nc3ccccc3C3=NCCN23)c1 [Example 2-143]", "Recombinant human PI3Kγ (full length human PI3K p110γ) (Homo sapiens)", "< 100 nM"],
  ["O=C(NC1=Nc2cc(OCCO)ccc2C2=NCCN12)c1cccnc1 [Example 2-197]", "Recombinant human PI3Kγ (full length human PI3K p110γ) (Homo sapiens)", "100 to 500 nM"],
  ["COc1cc(OC)c2c(c1)C1=NCCN1C(NC(=O)c1ccc3[nH]cnc3c1)=N2 [Example 2-72]", "Recombinant human PI3Kγ (full length human PI3K p110γ) (Homo sapiens)", "< 100 nM"],
  ["Cc1c(C(=O)NC2=Nc3ccccc3C3=NCCN23)cnc(N)c1C.Cl [Example 2-161]", "Recombinant human PI3Kγ (full length human PI3K p110γ) (Homo sapiens)", "100 to 500 nM"],
  ["O=C(NC1=Nc2ccccc2C2=NCCN12)c1cnc2[nH]cnc2c1 [Example 2-172]", "Recombinant human PI3Kγ (full length human PI3K p110γ) (Homo sapiens)", "< 100 nM"],
  ["COc1cc2c(cc1OC)C1=NCCN1C(NC(=O)c1cccs1)=N2 [Example 2-62]", "Recombinant human PI3Kγ (full length human PI3K p110γ) (Homo sapiens)", "100 to 500 nM"],
  ["Cl.Cn1cnc2cc(C(=O)NC3=Nc4ccccc4C4=NCCN34)ccc21 [Example 2-167]", "Recombinant human PI3Kγ (full length human PI3K p110γ) (Homo sapiens)", "100 to 500 nM"],
  ["Cc1ccc(C(=O)NC2=Nc3ccccc3C3=NCCN23)c(Cl)n1.Cl [Example 2-156]", "Recombinant human PI3Kγ (full length human PI3K p110γ) (Homo sapiens)", "100 to 500 nM"],
  ["Cc1nc(N)ccc1C(=O)NC1=Nc2ccccc2C2=NCCN12 [Example 2-157]", "Recombinant human PI3Kγ (full length human PI3K p110γ) (Homo sapiens)", "100 to 500 nM"]
]}

----------
# EXPERIMENTAL_SYSTEM: Recombinant human PI3Kγ (full length human PI3K p110γ) (Homo sapiens)
# Construct: full length human PI3K p110γ fused with a His6-tag at the C-terminus; His6 (C); purchased ALEXIS BIOCHEMICALS #201-055-C010; host or cells: S. frugiperda 9 insect cells
# TEST_PROTOCOL: Kinase assay of PI3Kγ (solid-phase lipid kinase assay)
# Type: biochemical
# SETTINGS: in vitro PI3K-γ inhibitory activity, class symbols; read-out: in vitro PI3K-gamma
pIC50: −log10 of the molar value.

{"columns": ["COMPOUND", "pIC50"],
 "data": [
  ["Cc1ccc2c(c1)N=C(NC(=O)c1cccs1)N1CCN=C21 [Example 2-31]", "6.30 to 7.00"],
  ["COc1cc2c(cc1OC)C1=NCCN1C(NC(=O)c1cncc(O)c1)=N2 [Example 2-54]", "> 7.00"],
  ["COc1cccc2c1N=C(NC(=O)c1cnccc1C)N1CCN=C21.Cl [Example 2-120]", "> 7.00"],
  ["Cl.O=C(NC1=Nc2c(F)cccc2C2=NCCN12)c1cccnc1 [Example 2-100]", "> 7.00"],
  ["O=C(NC1=Nc2ccccc2C2=NCCN12)c1ccc2cccnc2n1 [Example 2-177]", "6.30 to 7.00"],
  ["Cl.O=C(NC1=Nc2ccc(Br)cc2C2=NCCN12)c1ccc2[nH]cnc2c1 [Example 2-89]", "6.30 to 7.00"],
  ["Cc1noc(C)c1C(=O)NC1=Nc2ccccc2C2=NCCN12.Cl [Example 2-187]", "6.30 to 7.00"],
  ["O=C(NC1=Nc2cc(Br)ccc2C2=NCCN12)c1ccc2[nH]cnc2c1 [Example 2-44]", "6.30 to 7.00"],
  ["C=Cc1ccc2c(c1)C1=NCCN1C(NC(=O)c1cccnc1)=N2 [Example 2-95]", "6.30 to 7.00"]
]}

----------
ATTRIBUTE_MEASURED: melting point

{"columns": ["SMILES_RECORD", "RESULT_VALUE"],
 "data": [
  ["COc1c(OCC#N)ccc2c1N=C(/C=C(\\O)c1cccnc1)N1CCN=C21", "284 to 285 °C"],
  ["COc1ccc2c(c1OC)N=C(NC(=O)c1ccc(NC(C)=O)nc1)N1CCN=C21", "306 to 307 °C"],
  ["O=C(NC1=Nc2ccccc2C2=NCCN12)c1ccc(Cl)nc1", "246 to 247 °C"],
  ["Cc1cccc2c1N=C(NC(=O)c1cccnc1)N1CCN=C21", "244 °C"],
  ["CN(C=O)c1ccc(C(=O)NC2=Nc3ccccc3C3=NCCN23)cc1", "208 to 210 °C"]
]}

----------
# EXPERIMENTAL_SYSTEM: Recombinant human PI3Kγ (full length human PI3K p110γ) (Homo sapiens, UniProt P48736)
# Construct: full length human PI3K p110γ fused with a His6-tag at the C-terminus; His6 (C); purchased ALEXIS BIOCHEMICALS #201-055-C010; host or cells: S. frugiperda 9 insect cells
# Sequence (P48736 whole entry, the tested form may be a part): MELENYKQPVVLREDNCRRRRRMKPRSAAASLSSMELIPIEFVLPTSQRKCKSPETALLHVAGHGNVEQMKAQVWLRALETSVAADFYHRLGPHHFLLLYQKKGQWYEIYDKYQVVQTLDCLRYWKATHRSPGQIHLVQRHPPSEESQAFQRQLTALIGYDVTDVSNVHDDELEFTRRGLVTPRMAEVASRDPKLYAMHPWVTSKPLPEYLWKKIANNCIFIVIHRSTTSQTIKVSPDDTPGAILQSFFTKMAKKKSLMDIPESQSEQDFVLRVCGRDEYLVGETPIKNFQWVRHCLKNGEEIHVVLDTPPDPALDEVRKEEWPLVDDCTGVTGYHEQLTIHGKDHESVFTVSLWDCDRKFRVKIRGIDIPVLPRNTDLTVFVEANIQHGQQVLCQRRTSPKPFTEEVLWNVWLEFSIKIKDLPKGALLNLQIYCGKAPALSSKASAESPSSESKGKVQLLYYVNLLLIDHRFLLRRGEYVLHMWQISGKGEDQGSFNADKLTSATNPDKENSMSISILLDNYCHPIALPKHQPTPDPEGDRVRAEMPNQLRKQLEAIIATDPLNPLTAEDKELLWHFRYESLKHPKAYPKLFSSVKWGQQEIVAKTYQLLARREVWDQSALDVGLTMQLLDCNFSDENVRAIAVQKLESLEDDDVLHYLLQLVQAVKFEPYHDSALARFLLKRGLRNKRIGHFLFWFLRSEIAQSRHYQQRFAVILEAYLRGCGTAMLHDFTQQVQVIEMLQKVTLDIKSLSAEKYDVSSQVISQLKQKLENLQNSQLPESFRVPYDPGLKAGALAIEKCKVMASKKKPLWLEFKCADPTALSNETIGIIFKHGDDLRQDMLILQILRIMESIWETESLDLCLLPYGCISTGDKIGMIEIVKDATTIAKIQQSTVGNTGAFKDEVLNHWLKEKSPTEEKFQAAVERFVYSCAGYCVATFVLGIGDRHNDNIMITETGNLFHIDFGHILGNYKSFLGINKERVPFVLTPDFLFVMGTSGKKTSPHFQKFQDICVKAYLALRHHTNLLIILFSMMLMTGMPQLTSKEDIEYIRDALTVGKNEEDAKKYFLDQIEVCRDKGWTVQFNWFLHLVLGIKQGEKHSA
# TEST_PROTOCOL: Kinase assay of PI3Kγ (solid-phase lipid kinase assay)
# Format: biochemical
# SETTINGS: in vitro PI3K-γ inhibitory activity, class symbols; read-out: in vitro PI3K-gamma

{"columns": ["SMILES_RECORD", "IC50"],
 "data": [
  ["O=C(NC1=Nc2ccccc2C2=NCCN12)c1sccc1Cl", "100 to 500 nM"],
  ["CC(=O)Nc1ccc(C(=O)NC2=Nc3c(Cl)cccc3C3=NCCN23)cn1", "100 to 500 nM"],
  ["Cl.O=C(NC1=Nc2c(Cl)cccc2C2=NCCN12)c1ccc2[nH]cnc2c1", "100 to 500 nM"],
  ["Cl.O=C(NC1=Nc2ccccc2C2=NCCN12)c1cc2cccnc2nc1C(F)(F)F", "100 to 500 nM"],
  ["Cc1ccc2c(c1)N=C(NC(=O)c1ccc3[nH]cnc3c1)N1CCN=C21", "< 100 nM"]
]}

----------
ATTRIBUTE_MEASURED: melting point

{"columns": ["SMILES_RECORD", "RESULT_VALUE"],
 "data": [
  ["COc1cc(C(=O)NC2=Nc3ccccc3C3=NCCN23)cc(OC)c1OC.Cl", "291 °C (dec.)"],
  ["O/C(=C\\C1=Nc2ccncc2C2=NCCN12)c1cccnc1", "250 °C"],
  ["Cc1ccncc1C(=O)NC1=Nc2ccccc2C2=NCCN12", "194 to 195 °C"],
  ["O=[N+]([O-])c1cccc(/C(O)=C/C2=Nc3ccccc3C3=NCCN23)c1", "276 °C"],
  ["Cl.O=C(NC1=Nc2ccc(Cl)cc2C2=NCCN12)c1cccnc1", "309 °C"],
  ["Cl.O=C(NC1=Nc2ccccc2C2=NCCN12)c1cncc(O)c1", "296 to 297 °C"],
  ["Cc1cccc(C(=O)NC2=Nc3ccccc3C3=NCCN23)c1.O=C(O)C(F)(F)F", "239 to 241 °C"],
  ["O=C(NC1=Nc2ccc(F)cc2C2=NCCN12)c1cccnc1", "242 °C"],
  ["Cn1cc(C(=O)NC2=Nc3ccccc3C3=NCCN23)c2ccccc21", "288 to 289 °C"],
  ["CN(C)CCOc1cccc2c1N=C(/C=C(\\O)c1cccnc1)N1CCN=C21", "186 to 187 °C"],
  ["COc1c(C)cc(C(=O)NC2=Nc3ccccc3C3=NCCN23)cc1C.Cl", "288 °C (dec.)"],
  ["O=C(NC1=Nc2ccccc2C2=NCCN12)c1ccc2cccnc2n1", "275 °C (dec.)"],
  ["COc1cc2c(cc1OC)C1=NCCN1C(NC(=O)c1cn[nH]c1)=N2.Cl", "270 °C (dec.)"],
  ["NS(=O)(=O)c1ccc(C(=O)NC2=Nc3ccccc3C3=NCCN23)cc1", "278 °C (dec.)"],
  ["O=C(NC1=Nc2ccccc2C2=NCCN12)c1cccs1", "187 to 188 °C"],
  ["Cc1ccc2c(c1)C1=NCCN1C(NC(=O)c1ccc3[nH]cnc3c1)=N2.Cl", "> 290 °C"],
  ["O=C(NC1=Nc2ccccc2C2=NCCN12)c1ccc([N+](=O)[O-])cc1.O=C(O)C(F)(F)F", "265 °C (dec.)"],
  ["O=C(NC1=Nc2ccc(Br)cc2C2=NCCN12)c1cccs1", "232 °C"],
  ["COc1c(OCc2nn[nH]n2)ccc2c1N=C(/C=C(\\O)c1cccnc1)N1CCN=C21", "229 to 231 °C"],
  ["Cl.O=C(NC1=Nc2cccc(Cl)c2C2=NCCN12)c1cccnc1", "249 °C"],
  ["CNc1ccc(C(=O)NC2=Nc3ccccc3C3=NCCN23)cn1", "196 to 197 °C"],
  ["Cc1cc(C(=O)NC2=Nc3ccccc3C3=NCCN23)cc(C)c1[N+](=O)[O-].Cl", "313 °C (dec.)"],
  ["COc1cc2c(c(OC)c1C)N=C(NC(=O)c1ccc3[nH]cnc3c1)N1CCN=C21", "202 °C"],
  ["C=Cc1ccc2c(c1)C1=NCCN1C(NC(=O)c1cccnc1)=N2.Cl", "275 to 277 °C"],
  ["O/C(=C\\C1=Nc2ccccc2C2=NCCN12)c1cccs1", "193 °C"],
  ["COc1cccc2c1N=C(NC(=O)c1cccnc1Cl)N1CCN=C21", "185 °C (dec.)"],
  ["Nc1ncccc1C(=O)NC1=Nc2ccccc2C2=NCCN12", "215 °C (dec.)"],
  ["O/C(=C\\C1=Nc2cc(N3CCN(Cc4ccccc4)CC3)ccc2C2=NCCN12)c1cccnc1", "257 °C"],
  ["CC(=O)Nc1ccc(/C(O)=C/C2=Nc3cc(CN4CCOCC4)ccc3C3=NCCN23)cn1.Cl", "260 °C"],
  ["COc1ccc(/C(O)=C/C2=Nc3ccccc3C3=NCCN23)cc1", "212 to 214 °C"],
  ["Cl.O=C(NC1=Nc2ccccc2C2=NCCN12)c1cccnc1O", "346 °C (dec.)"],
  ["COc1cc2c(cc1OC)C1=NCCN1C(/C=C(\\O)c1sc(C)nc1C)=N2.Cl", "268 to 271 °C"],
  ["Cl.O=C(NC1=Nc2ccccc2C2=NCCN12)c1cnc2ccccc2c1", "319 °C (dec.)"],
  ["Cl.O=C(NC1=Nc2cc(Cl)ccc2C2=NCCN12)c1cccnc1", "308 °C"],
  ["Cc1ccc(/C(O)=C/C2=Nc3ccccc3C3=NCCN23)cn1.Cl", "> 300 °C"],
  ["Cc1ccc2c(c1)N=C(NC(=O)c1cccs1)N1CCN=C21.Cl", "276 °C"]
]}
